Test: Toxicity (LD50), oral or subcutaneous administration
Details: in vivo, po
*1 amine or outer side, *2 acyl side, *3 side chain or, on linkers, in order; H or OH if unused. Where a SMILES comes first, the peptide text is derived from it. Bridges are numbered along the chain shown (N, C = ends). [ ]: non-standard residue; d: D form. The star is where a group is joined. NMeT = CN[CH](C(=O)O)[CH](C)O; X1 = CCCCCCCCCCCC(O)CC(=O)*; X2 = CC=C(N[*:1])C(=O)[*:2]; X3 = OCC1OC(*)C(O)C(O)C1O
Measurement type: LD50 (mg/kg)
Could you give me the number in mg/kg? Just the number is fine.

# Compound, LD50 (mg/kg)
measured = [
    ("CC=C(NC(=O)CC(O)CCCCCCCCCCC)C(=O)NC1C(=O)NC(C(C)O)C(=O)NC(Cc2ccc(O)cc2)C(=O)NC(=CC)C(=O)NC(CCC(N)=O)C(=O)NCC(=O)N(C)C(C(C)OC2OC(CO)C(O)C(O)C2O)C(=O)NC(Cc2cnc[nH]2)C(=O)OC1C (centres unmarked) [Antibiotic 20562] (X1-[X2]TTY[X2]QG[NMeT](X3)H; ester 2-C; configuration not given here)", 800),
]

Consider the record given below.
For CC=C(NC(=O)CC(O)CCCCCCCCCCC)C(=O)NC1C(=O)NC(C(C)O)C(=O)NC(Cc2ccc(O)cc2)C(=O)NC(=CC)C(=O)NC(CCC(N)=O)C(=O)NCC(=O)N(C)C(C(C)O)C(=O)NC(Cc2cnc[nH]2)C(=O)OC1C (centres unmarked) [Antibiotic 20561] (X1-[X2]TTY[X2]QG[NMeT]H; ester 2-C; configuration not given here) the compound record lists LD50 as 1000
